Ref: ChEMBL document CHEMBL1909294

This document collects HepSE_jaundice values reported for Hepatotoxicity.
Enter a number only.

Input: Fill in the blank: the reported HepSE_jaundice of NCC(CC(=O)O)c1ccc(Cl)cc1 (configuration not stated) is ____.
Output: 0

Input: Another compound to check: O=C(CCCCC(=O)Nc1c(I)cc(I)c(C(=O)O)c1I)Nc1c(I)cc(I)c(C(=O)O)c1I [IODIPAMIDE]
Output: 0

Input: Same thing, different compound: CC(C)(C)NCC(O)c1ccc(O)c(CO)n1 (configuration not stated)
Output: 0

Input: Please do the same for CC(C(=O)O)c1cccc(Oc2ccccc2)c1 (configuration not stated) as well.
Output: 1

Input: Next entry: CNC(=O)c1c(I)c(NC(C)=O)c(I)c(C(=O)[O-])c1I.[Na+] [IOTHALAMATE SODIUM]
Output: 0

Input: Next record, please: `NC(=O)CC[C@@H]1NC(=O)[C@H](Cc2ccccc2)NC(=O)[C@H](Cc2ccc(O)cc2)NC(=O)CCSSC[C@@H](C(=O)N2CCC[C@H]2C(=O)N[C@H](CCCN=C(N)N)C(=O)NCC(N)=O)NC(=O)[C@H](CC(N)=O)NC1=O`
Output: 0

Input: Would you kindly repeat that for `CCOc1ccccc1OCCN[C@H](C)Cc1ccc(OC)c(S(N)(=O)=O)c1` ?
Output: 0

Input: Now the compound NC1=NC(=O)C(c2ccccc2)O1 (configuration not stated)
Output: 1

Input: Okay, and CCCCN(CCCC)CCC(O)c1cc2c(Cl)cc(Cl)cc2c2cc(C(F)(F)F)ccc12 (configuration not stated) ?
Output: 0

Input: Next: `CNC(=C[N+](=O)[O-])NCCSCc1ccc(CN(C)C)o1`
Output: 1

Input: Can you handle COc1cc(NCc2ccc3nc(N)nc(N)c3c2C)cc(OC)c1OC [TRIMETREXATE] next?
Output: 0

Input: Also `CCN1CCN(C(=O)N[C@@H](C(=O)N[C@@H]2C(=O)N3C(C(=O)O)=C(CSc4nnnn4C)CS[C@H]23)c2ccc(O)cc2)C(=O)C1=O` ?
Output: 0

Input: // same read-out, input: `CCC[C@@H]1C[C@@H](C(=O)N[C@@H]([C@H]2O[C@H](SC)[C@H](O)[C@@H](O)[C@H]2O)[C@H](C)Cl)N(C)C1`
Output: 1

Input: Now consider Clc1ccc(COC(Cn2ccnc2)c2ccc(Cl)cc2Cl)cc1 (configuration not stated) .
Output: 0

Input: Again, but for `O=P(O)(O)C(O)(Cc1cccnc1)P(=O)(O)O`
Output: 0

Input: Entry to check: `CC(C)(S)[C@@H](N)C(=O)O`
Output: 0

Input: And what about the compound N=C(N)NC(=O)c1nc(Cl)c(N)nc1N [AMILORIDE] ?
Output: 1

====

So I've got HepSE_elevated liver function tests readings for Hepatotoxicity, take a look.
Keep it simple and answer with nothing but the number.

Input: For the sequence `IVERMECTIN` , what HepSE_elevated liver function tests is on record?
Output: 0

Input: Follow-up entry: `UROFOLLITROPIN`
Output: 0

Input: Repeat for the following sequence: COLESEVELAM HYDROCHLORIDE
Output: 0

Input: Request: `MANGAFODIPIR`
Output: 0

Input: And for GLATIRAMER ACETATE ?
Output: 0

Input: Then this sequence: `COLESTIPOL`
Output: 0

====

# Test system: Hepatotoxicity
*1 amine or outer side, *2 acyl side, *3 side chain or, on linkers, in order; H or OH if unused. Where a SMILES comes first, the peptide text is derived from it. Bridges are numbered along the chain shown (N, C = ends). [ ]: non-standard residue; d: D form. The star is where a group is joined. ξ: configuration not given here. pTerphenylCO(4''-OnC5H11) = CCCCCOc1ccc(-c2ccc(-c3ccc(C(=O)*)cc3)cc2)cc1; Orn(4R-OH,5R-OH) = O=C([C@H](C[C@@H](O)[C@@H](O)N[*:3])N[*:1])[*:2]; hTyr(3S-OH,4S-OH) = N[C@H](C(=O)O)[C@H](O)[C@@H](O)c1ccc(O)cc1; Pro(3S-OH,4S-Me) = C[C@H]1CN[C@H](C(=O)O)[C@H]1O; X2 = N=C1NCCC([C@H](N[*:1])C(=O)[*:2])N1; ΔAla(Z-3-ureido) = NC(=O)N/C=C(\N)C(=O)O; Hyp = O=C(O)[C@@H]1C[C@@H](O)CN1; ξβ3hOrn = NCCCC(N)CC(=O)*; Dap = NC[C@H](N)C(=O)O
attribute_measured: HepSE_Combined Scores
Answer field: number only, no words.

Input: Return reported HepSE_Combined Scores; argument: COC(c1ccccc1)(c1ccccc1)[C@H](Oc1nc(C)cc(C)n1)C(=O)O [AMBRISENTAN]
Output: 0

Input: Ok, now C[C@@H]1NC(=O)[C@@H](N)CNC(=O)[C@H](C2CCNC(=N)N2)NC(=O)/C(=C/NC(N)=O)NC(=O)[C@H](CNC(=O)CC(N)CCCN)NC1=O.N=C1NCCC([C@@H]2NC(=O)/C(=C/NC(N)=O)NC(=O)[C@H](CNC(=O)CC(N)CCCN)NC(=O)[C@H](CO)NC(=O)[C@@H](N)CNC2=O)N1 (stereo partly drawn) [CAPREOMYCIN] (H-[Dap]S[Dap](ξβ3hOrn)[ΔAla(Z-3-ureido)][X2]; lactam 1-C)
Output: 1

Input: Also NS(=O)(=O)c1cc2c(cc1Cl)NCNS2(=O)=O [HYDROCHLOROTHIAZIDE] , if possible.
Output: 1

Input: // same read-out, input: C[C@]12CCC(=O)C=C1CC[C@H]1[C@@H]3CC[C@](O)(C(=O)CO)[C@@]3(C)C[C@H](O)[C@@]12F [FLUDROCORTISONE]
Output: 0

Input: Try CCCCCOc1ccc(-c2ccc(-c3ccc(C(=O)N[C@H]4C[C@@H](O)[C@@H](O)NC(=O)[C@@H]5[C@@H](O)[C@@H](C)CN5C(=O)[C@H]([C@@H](C)O)NC(=O)[C@H]([C@H](O)[C@@H](O)c5ccc(O)cc5)NC(=O)[C@@H]5C[C@@H](O)CN5C(=O)[C@H]([C@@H](C)O)NC4=O)cc3)cc2)cc1 [ANIDULAFUNGIN] ({pTerphenylCO(4''-OnC5H11)}-[Orn(4R-OH,5R-OH)]T[Hyp][hTyr(3S-OH,4S-OH)]T[Pro(3S-OH,4S-Me)]; lactam 1-C) next.
Output: 2

Input: Also CC(C(=O)O)c1cccc(C(=O)c2ccccc2)c1 (stereo unspecified) [KETOPROFEN] , if possible.
Output: 2

====

Measured DILI positive/negative (Hepatotoxicity)
# output: bare number, no unit

Input: Requested read-out: DILI positive/negative. Entry: CCN(CC)C(=O)N1CCN(C)CC1 [DIETHYLCARBAMAZINE]
Output: 1

Input: And C=CC(O)CC#N (stereo not given) ?
Output: 0

Input: Again, but for COc1ccc2[nH]cc(CCNC(C)=O)c2c1 [MELATONIN]
Output: 0

Input: // same read-out, input: Oc1c(Cl)cc(Cl)cc1Sc1cc(Cl)cc(Cl)c1O [BITHIONOL]
Output: 1

Input: What about CC(=O)Nc1ccc(O)cc1 [ACETAMINOPHEN] ?
Output: 1

Input: Then what about the compound CCN(CC)CCNc1ccc(CO)c2sc3ccccc3c(=O)c12 [HYCANTHONE] ?
Output: 1

Input: Try this compound next: O=C(O)c1ccncc1 [ISONICOTINIC ACID]
Output: 0

Input: Query N[C@@H](Cc1ccc(O)c(O)c1)C(=O)O [LEVODOPA] next
Output: 0

Input: Proceed to c1ccc2c(c1)Nc1ccccc1S2 [PHENOTHIAZINE]
Output: 1

Input: Try this compound too: C[N+](C)(C)CCOP(=O)(O)OP(=O)([O-])OC[C@H]1O[C@@H](n2ccc(N)nc2=O)[C@H](O)[C@@H]1O [CITICOLINE]
Output: 0

====

# System: Hepatotoxicity
Where a SMILES comes first, the peptide text is derived from it. Bridges are numbered along the chain shown (N, C = ends). [ ]: non-standard residue; d: D form. The star is where a group is joined. Threoninol(2S,3R) = C[C@@H](O)[C@H](CO)N*
Consider the following molecules; for each one, report its HepSE_liver fatty.
Answer with the value's number alone.

Input: Suppose we examine the molecule `C=C(CC)C(=O)c1ccc(OCC(=O)O)c(Cl)c1Cl` ; what HepSE_liver fatty value has been reported?
Output: 0

Input: Cool, now N#Cc1cc(NC(=O)C(=O)O)c(Cl)c(NC(=O)C(=O)O)c1 [LODOXAMIDE]
Output: 0

Input: Can you handle CC(=O)N(CC(O)CO)c1c(I)c(C(=O)NCC(O)CO)c(I)c(C(=O)NCC(O)CO)c1I (configuration not stated) [IOHEXOL] next?
Output: 0

Input: Param item: C[C@@H](O)[C@H](CO)NC(=O)[C@@H]1CSSC[C@H](NC(=O)[C@H](N)Cc2ccccc2)C(=O)N[C@@H](Cc2ccccc2)C(=O)N[C@H](Cc2c[nH]c3ccccc23)C(=O)N[C@@H](CCCCN)C(=O)N[C@@H]([C@@H](C)O)C(=O)N1 (H-[dF]CF[dW]KTC-{Threoninol(2S,3R)}; disulfide 2-7)
Output: 1

Input: Subsequent entry: CC(C)OC(=O)C(C)(C)Oc1ccc(C(=O)c2ccc(Cl)cc2)cc1 [FENOFIBRATE]
Output: 1

Input: And the next one, `N[C@@H](Cc1ccc(N(CCCl)CCCl)cc1)C(=O)O` ?
Output: 0

Input: COc1ccc2[nH]c([S+]([O-])Cc3ncc(C)c(OC)c3C)nc2c1 (configuration not stated) , same question.
Output: 0
